target.under.test: Cyclin-dependent kinase 6 (Homo sapiens);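 further: mean percent inhibition of the kinase bound to its cyclin partner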
condition.description: at 1 µM
Property: inhibition; scope: individual compounds
Supply the numeric figure in %, leaving out any unit text.

Consider the reported inhibition for these compounds:
mol.smiles	target.under.test	inhibition (%)
CCN1CCC(CC(=O)Nc2n[nH]c3nnc(-c4cccc(F)c4F)cc23)CC1	Cyclin-dependent kinase 6 (Homo sapiens)	17.4
COC(=O)c1sc(-n2cnc3cc(OC)c(OC)cc32)cc1OCc1ccccc1C(F)(F)F	Cyclin-dependent kinase 6 (Homo sapiens)	5.15
COc1ccc2[nH]c3c4[nH]c5ccc(OC)cc5c4c4c(c3c2c1)C(=O)NC4=O	Cyclin-dependent kinase 6 (Homo sapiens)	3.6

Incoming: Supply inhibition measured with Cyclin-dependent kinase 6 (Homo sapiens) for "FC(F)(F)c1cccc(-c2nn3ncccc3c2-c2ccnc(Nc3ccc4c(c3)OCCO4)n2)c1" .
Outgoing: 2.39

Incoming: Provide the reported inhibition (system: Cyclin-dependent kinase 6 (Homo sapiens)) for "CCn1c(-c2nonc2N)nc2c(C#CC(C)(C)O)nc(OC[C@H](N)c3ccccc3)cc21"
Outgoing: -0.97
